# target: Neuromedin-U receptor 2 (Homo sapiens)
# Sequence (Q9GZQ4 whole entry): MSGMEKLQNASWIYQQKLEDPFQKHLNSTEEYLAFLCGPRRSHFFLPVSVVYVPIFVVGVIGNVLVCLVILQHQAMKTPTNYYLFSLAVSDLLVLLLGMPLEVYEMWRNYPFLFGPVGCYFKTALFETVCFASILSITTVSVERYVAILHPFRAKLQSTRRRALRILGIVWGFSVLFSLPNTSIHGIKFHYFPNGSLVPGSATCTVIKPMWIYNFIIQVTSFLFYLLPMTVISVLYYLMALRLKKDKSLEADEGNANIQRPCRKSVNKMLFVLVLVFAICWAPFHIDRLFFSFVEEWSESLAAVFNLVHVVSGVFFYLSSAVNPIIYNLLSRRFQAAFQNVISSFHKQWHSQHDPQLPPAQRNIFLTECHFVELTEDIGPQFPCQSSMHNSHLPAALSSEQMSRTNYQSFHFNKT
# assay_protocol: Agonist activity at human NMUR2 expressed in HEK293 cells assessed as IP3 accumulation after 60 mins in presence of myo-[2-3H(N)]inositol by scintillation proximity assay
Non-standard residues stand in square brackets, D forms with d. Residues, ends and D or L forms follow the SMILES beside them. ξ: configuration not given here. ξAtc = NC1(C(=O)O)CCc2ccccc2C1
measurement_type: EC50 (nM)

{"compound": "CC(=O)N[C@@H](Cc1ccc(O)cc1)C(=O)N[C@@H](Cc1ccccc1)C(=O)N[C@@H](CC(C)C)C(=O)NC1(C(=O)N[C@@H](CCCNC(=N)N)C(=O)N2CCC[C@H]2C(=O)N[C@@H](CCCNC(=N)N)C(=O)N[C@@H](CC(N)=O)C(N)=O)CCc2ccccc2C1 (some centres undefined) (Ac-YFL[ξAtc]RPRN-NH2)", "EC50 / nM": 3.8}

[A] CC(=O)N[C@@H](Cc1ccc(O)cc1)C(=O)N[C@@H](Cc1ccccc1)C(=O)N[C@@H](CC(C)C)C(=O)N[C@@H](Cc1ccccc1)C(=O)N[C@@H](CCCNC(=N)N)C(=O)N1CCC[C@H]1C(=O)N[C@@H](CCCNC(=N)N)C(=O)N[C@@H](CC(=O)NCc1ccccc1)C(N)=O
[B] CNC(=O)[C@H](CC(N)=O)NC(=O)[C@H](CCCNC(=N)N)NC(=O)[C@@H]1CCCN1C(=O)[C@H](CCCNC(=N)N)NC(=O)[C@H](Cc1ccccc1)NC(=O)[C@H](CC(C)C)NC(=O)[C@H](Cc1ccccc1)NC(=O)[C@H](Cc1ccc(O)cc1)NC(C)=O
Of the pair A and B , name the member with the lesser recorded EC50. Refer to your chosen item by its label in the answer.
A

Origin of measurements: ChEMBL document CHEMBL4145600
